A collection of compounds and their measured % Inhibition of Apyrase
# System: apyrase
# Assay text: Screen for apyrase inhibitors (Method 1, in vitro phosphate-release absorbance assay)
# Assay type: biochemical
# Assay conditions: inhibitor conc at 1 mM stock, 1 hr room temperature, absorbance 630 nm; rounded average of two assay results
Property name: % Inhibition of Apyrase (%)

{"Compound": "Cc1cccc(NS(=O)(=O)c2ccc(C(=O)Nc3cccc(C(=O)N(C)C)c3)cc2)c1C", "Measured": 18}
{"Compound": "O=C(Nc1ccccc1NS(=O)(=O)c1cccs1)c1ccc(C(F)(F)F)cc1", "Measured": 49}
{"Compound": "O=C(Nc1ccc2c(c1)OCO2)c1ccc(S(=O)(=O)Nc2ccccc2F)cc1", "Measured": 41}
{"Compound": "O=C(Nc1ccccc1OC(F)F)c1ccc(S(=O)(=O)Nc2ccccc2)cc1", "Measured": 35}
{"Compound": "O=C(Nc1ccc(Br)cc1)c1cccc(S(=O)(=O)Nc2cccc(C(F)(F)F)c2)c1", "Measured": 63}
{"Compound": "CSc1ncccc1C(=O)Nc1cccc(S(=O)(=O)N(C)c2ccccc2)c1", "Measured": 49}
{"Compound": "CC1CCc2c(sc(NC(=O)c3cccc(S(=O)(=O)Nc4ccccc4Cl)c3)c2C#N)C1 (stereo not drawn)", "Measured": 64}
{"Compound": "COc1cc(C)c(NC(=O)c2cccc(S(=O)(=O)N3CCc4ccccc43)c2)cc1OC", "Measured": 23}
{"Compound": "Cc1ccnc(NC(=O)c2cccc(NS(=O)(=O)c3ccc(C)c(F)c3)c2)c1", "Measured": 50}
{"Compound": "CC1Cc2ccccc2N1S(=O)(=O)c1cccc(C(=O)N2CCc3cccc(F)c32)c1 (stereo not drawn)", "Measured": 57}
{"Compound": "COc1ccc(N(C)S(=O)(=O)c2cccc(C(=O)Nc3ccc4c(c3)OCCO4)c2)cc1", "Measured": 51}
{"Compound": "Cc1ccc(C)c(S(=O)(=O)Nc2cccc(C(=O)Nc3cnccn3)c2)c1", "Measured": 7}
{"Compound": "COc1ccc(S(=O)(=O)N2CCc3ccccc32)cc1C(=O)Nc1ccc(OC(F)(F)F)cc1", "Measured": 35}
{"Compound": "N#Cc1cccc(NC(=O)c2ccc(NS(=O)(=O)c3ccc(Br)cc3)cc2)c1", "Measured": 56}
{"Compound": "CCOc1ccccc1NC(=O)c1ccc(Cl)c(S(=O)(=O)N2CCc3ccccc32)c1", "Measured": 65}
{"Compound": "Cc1cccc(C(=O)Nc2cccc(NS(=O)(=O)c3ccccc3)c2)c1[N+](=O)[O-]", "Measured": 53}
{"Compound": "Cc1nc2ccc(NC(=O)c3cccc(S(=O)(=O)N4CCc5ccccc54)c3)cc2s1", "Measured": 41}
{"Compound": "O=C(Nc1cccc2cccnc12)c1cccc(S(=O)(=O)N2CCc3ccccc32)c1", "Measured": 61}

----------
# Test system: apyrase
# Assay text: Screen for apyrase inhibitors (Method 1, in vitro phosphate-release absorbance assay)
# Format: biochemical
# Assay conditions: inhibitor conc at 1 mM stock, 1 hr room temperature, absorbance 630 nm; rounded average of two assay results
Each record's class is read off its % Inhibition of Apyrase using these ranges: label 0 (below 50%), label 1 (50% to below 60%), label 2 (60% or more)

{"Smiles repr": "NC(=O)c1cc(NC(=O)c2cccc(NS(=O)(=O)c3ccc4c(c3)OCCO4)c2)ccc1Cl", "Label value": "label 0"}
{"Smiles repr": "O=C(Nc1ccc(F)cc1)c1ccc(NS(=O)(=O)c2ccc(Cl)c([N+](=O)[O-])c2)cc1", "Label value": "label 2"}
{"Smiles repr": "CSc1cccc(NC(=O)c2cccc(S(=O)(=O)Nc3ccc4c(c3)OCO4)c2)c1", "Label value": "label 2"}
{"Smiles repr": "O=C(Nc1ccc(Cl)cc1)c1cccc(S(=O)(=O)N2CCc3ccccc32)c1", "Label value": "label 1"}
{"Smiles repr": "Cc1csc(NC(=O)c2cccc(NS(=O)(=O)c3ccccc3)c2)n1", "Label value": "label 0"}
{"Smiles repr": "O=C(c1cc(S(=O)(=O)Nc2cccc(Cl)c2)c(Cl)cc1Cl)N1CCCc2ccccc21", "Label value": "label 1"}
{"Smiles repr": "O=C(Nc1cccc(S(=O)(=O)Nc2cccc(C(F)(F)F)c2)c1)c1ccco1", "Label value": "label 0"}
{"Smiles repr": "Cc1cc(C)cc(NC(=O)c2ccc(NS(=O)(=O)c3ccc(F)c(Cl)c3)cc2)c1", "Label value": "label 1"}
{"Smiles repr": "O=C(Nc1ccc(S(=O)(=O)Nc2ncccn2)cc1)c1cccc(S(=O)(=O)N2CCc3ccccc32)c1", "Label value": "label 1"}
{"Smiles repr": "O=C(Nc1cccc(S(=O)(=O)Nc2ccc(Br)cc2)c1)C1CCCCC1", "Label value": "label 2"}
{"Smiles repr": "Cc1cccc(NS(=O)(=O)c2cc(C(=O)Nc3cccc(C#N)c3)c(Cl)cc2Cl)c1", "Label value": "label 1"}
{"Smiles repr": "O=C(Nc1cccc([N+](=O)[O-])c1)c1cccc(S(=O)(=O)Nc2cc(C(F)(F)F)ccc2Cl)c1", "Label value": "label 2"}
{"Smiles repr": "O=C(/C=C/c1ccco1)Nc1cccc(S(=O)(=O)Nc2ccc(Br)cc2)c1", "Label value": "label 2"}
{"Smiles repr": "CN(c1ccccc1)S(=O)(=O)c1cccc(C(=O)N2CCCc3ccccc32)c1", "Label value": "label 1"}
{"Smiles repr": "COc1ccc(S(=O)(=O)N2CCc3ccccc32)cc1C(=O)Nc1cccc(C)c1", "Label value": "label 1"}
{"Smiles repr": "Cc1ccc(F)c(NC(=O)c2cccc(S(=O)(=O)Nc3ccc4c(c3)OCO4)c2)c1", "Label value": "label 2"}
{"Smiles repr": "COc1ccccc1NC(=O)c1ccc(NS(=O)(=O)c2ccc(C(F)(F)F)cc2)cc1", "Label value": "label 1"}
{"Smiles repr": "O=C(Nc1ccc(Cl)c([N+](=O)[O-])c1)c1cccc(S(=O)(=O)Nc2cc(C(F)(F)F)ccc2Cl)c1", "Label value": "label 2"}
{"Smiles repr": "Cc1cc(C(=O)Nc2cccc(S(=O)(=O)Nc3ccc(Br)cc3)c2)ccc1[N+](=O)[O-]", "Label value": "label 2"}
{"Smiles repr": "N#Cc1cccc(NC(=O)c2cccc(S(=O)(=O)Nc3cc(C(F)(F)F)ccc3Cl)c2)c1", "Label value": "label 1"}
{"Smiles repr": "O=C1CCc2cc(S(=O)(=O)Nc3cccc(C(=O)Nc4cccc(C(F)(F)F)c4)c3)ccc2N1", "Label value": "label 2"}
{"Smiles repr": "Cc1ccc(NC(=O)c2ccc(NS(=O)(=O)c3ccc(F)c(F)c3)cc2)cc1F", "Label value": "label 1"}
{"Smiles repr": "O=C(Nc1ccc(Br)cc1)c1cccc(S(=O)(=O)Nc2cc(C(F)(F)F)ccc2Cl)c1", "Label value": "label 2"}
{"Smiles repr": "O=C(Nc1ccc(S(=O)(=O)N2CCCC2)cc1)c1ccccc1NS(=O)(=O)c1cccc(C(F)(F)F)c1", "Label value": "label 2"}
{"Smiles repr": "Cc1cc(F)ccc1S(=O)(=O)Nc1ccc(C(=O)Nc2cccc(C#N)c2)cc1", "Label value": "label 0"}
{"Smiles repr": "COc1ccc(NC(=O)c2cccc(S(=O)(=O)Nc3ccc4c(c3)OCO4)c2)cc1Cl", "Label value": "label 1"}
{"Smiles repr": "CC(=O)c1cc2c(cc1NC(=O)c1cccc(S(=O)(=O)N3CCc4ccccc43)c1)OCO2", "Label value": "label 0"}
{"Smiles repr": "COc1ccc(NS(=O)(=O)c2cccc(NC(=O)c3ccc(Cl)nc3)c2)cc1", "Label value": "label 1"}
{"Smiles repr": "O=C1CCCN1c1ccccc1NS(=O)(=O)c1ccc(Br)cc1", "Label value": "label 0"}

----------
# System: apyrase
# Assay text: Screen for apyrase inhibitors (Method 1, in vitro phosphate-release absorbance assay)
# Format: biochemical
# Assay conditions: inhibitor conc at 1 mM stock, 1 hr room temperature, absorbance 630 nm; rounded average of two assay results

{"Compound": "Cc1cccc(NC(=O)c2ccc(Cl)c(S(=O)(=O)N3CCc4ccccc43)c2)c1", "Unit text": "%", "% Inhibition of Apyrase": 52}
{"Compound": "Cc1cnc(C(=O)Nc2cccc(S(=O)(=O)N(C)c3ccccc3)c2)cn1", "Unit text": "%", "% Inhibition of Apyrase": 12}
{"Compound": "O=C(Nc1ccc(F)c(Cl)c1)c1cccc(S(=O)(=O)Nc2ccc3c(c2)OCO3)c1", "Unit text": "%", "% Inhibition of Apyrase": 73}
{"Compound": "O=C(Nc1cccc(F)c1)c1ccc(S(=O)(=O)Nc2ccc(Cl)cc2)cc1", "Unit text": "%", "% Inhibition of Apyrase": 74}
{"Compound": "O=C(Nc1cccc(S(=O)(=O)Nc2ccc(Br)cc2)c1)c1ccc([N+](=O)[O-])s1", "Unit text": "%", "% Inhibition of Apyrase": 73}
{"Compound": "CN(c1ccccc1)S(=O)(=O)c1cccc(NC(=O)c2cc(C3CC3)on2)c1", "Unit text": "%", "% Inhibition of Apyrase": 3}
{"Compound": "Cc1ccc(S(=O)(=O)N(C)c2ccc(C(=O)Nc3cc([N+](=O)[O-])ccc3C)cc2)cc1", "Unit text": "%", "% Inhibition of Apyrase": 56}
{"Compound": "Cc1ccc(NS(=O)(=O)c2ccc(C(=O)N3CCc4cc(S(N)(=O)=O)ccc43)cc2)cc1", "Unit text": "%", "% Inhibition of Apyrase": 48}
{"Compound": "CCOc1ccc(NS(=O)(=O)c2c(C)cccc2NC(=O)c2ccccc2OC)cc1", "Unit text": "%", "% Inhibition of Apyrase": 57}
{"Compound": "O=C(Nc1cccnc1)c1cccc(NS(=O)(=O)c2ccc(Br)cc2)c1", "Unit text": "%", "% Inhibition of Apyrase": 51}
{"Compound": "O=C(c1ccc(Cl)c(S(=O)(=O)N2CCc3ccccc32)c1)N1CCc2ccccc21", "Unit text": "%", "% Inhibition of Apyrase": 61}
{"Compound": "COc1ccc2c(c1)CCCN2C(=O)c1ccc(S(=O)(=O)Nc2ccccc2)cc1", "Unit text": "%", "% Inhibition of Apyrase": 56}
{"Compound": "CN(c1ccccc1)S(=O)(=O)c1ccccc1C(=O)Nc1ccc(Cl)cc1F [I-808]", "Unit text": "%", "% Inhibition of Apyrase": 80}
{"Compound": "COc1ccccc1C(=O)Nc1cccc(NS(=O)(=O)c2ccc(C)c(C)c2)c1", "Unit text": "%", "% Inhibition of Apyrase": 64}
{"Compound": "COc1ccc(NC(=O)c2ccc(S(=O)(=O)Nc3ccc(F)cc3)cc2)cc1", "Unit text": "%", "% Inhibition of Apyrase": 30}
{"Compound": "O=C(Nc1ccc(S(=O)(=O)Nc2cccc(C(F)(F)F)c2)cc1)c1ccccc1", "Unit text": "%", "% Inhibition of Apyrase": 28}
{"Compound": "Cn1nc2c(c1NC(=O)c1cccc(NS(=O)(=O)c3ccc(Br)cc3)c1)CCC2", "Unit text": "%", "% Inhibition of Apyrase": 44}
{"Compound": "COc1ccc([N+](=O)[O-])cc1S(=O)(=O)Nc1ccccc1NC(=O)c1ccc(C(C)(C)C)cc1", "Unit text": "%", "% Inhibition of Apyrase": 59}
{"Compound": "CC(=O)Nc1ccc(NC(=O)c2cccc(S(=O)(=O)N3CCc4ccccc43)c2)cc1", "Unit text": "%", "% Inhibition of Apyrase": 58}
{"Compound": "CN(c1ccccc1)S(=O)(=O)c1cccc(NC(=O)c2ccc(=O)[nH]n2)c1", "Unit text": "%", "% Inhibition of Apyrase": 33}
{"Compound": "COc1ccccc1NS(=O)(=O)c1cccc(NC(=O)c2ccc(=O)n(C)n2)c1", "Unit text": "%", "% Inhibition of Apyrase": 3}
{"Compound": "CCOc1ccc(NS(=O)(=O)c2c(C)cccc2NC(=O)c2ccc(Cl)cc2)cc1", "Unit text": "%", "% Inhibition of Apyrase": 56}
{"Compound": "O=C(Nc1cccc(C(F)(F)F)c1)c1cccc(NS(=O)(=O)c2cccs2)c1", "Unit text": "%", "% Inhibition of Apyrase": 55}
{"Compound": "O=C(Nc1ccc2c(c1)OCO2)c1ccc(Cl)c(S(=O)(=O)N2CCc3ccccc32)c1", "Unit text": "%", "% Inhibition of Apyrase": 51}
{"Compound": "COc1ccc(S(=O)(=O)N2CCc3ccccc32)cc1C(=O)Nc1cc(C(F)(F)F)cc(C(F)(F)F)c1", "Unit text": "%", "% Inhibition of Apyrase": 61}
{"Compound": "COc1ccc(NC(=O)c2ccc(S(=O)(=O)Nc3ccccc3)cc2)cc1", "Unit text": "%", "% Inhibition of Apyrase": 40}
{"Compound": "Cc1ccc(C(=O)N2CCc3ccccc32)cc1S(=O)(=O)Nc1ccc(F)cc1", "Unit text": "%", "% Inhibition of Apyrase": 51}
{"Compound": "O=C(Nc1nccs1)c1cccc(NS(=O)(=O)c2cc(Cl)ccc2Cl)c1", "Unit text": "%", "% Inhibition of Apyrase": 56}
{"Compound": "COc1cc(C(=O)Nc2cccc(NS(=O)(=O)c3ccc(C)c(C)c3)c2)cc2c1OCCO2", "Unit text": "%", "% Inhibition of Apyrase": 69}
{"Compound": "CC1Cc2ccccc2N1S(=O)(=O)c1cccc(C(=O)Nc2cccc3ncccc23)c1 (stereo not shown)", "Unit text": "%", "% Inhibition of Apyrase": 28}
{"Compound": "NS(=O)(=O)c1cccc(NC(=O)c2ccc(S(=O)(=O)Nc3ccc(Cl)cc3)cc2)c1", "Unit text": "%", "% Inhibition of Apyrase": 65}
{"Compound": "O=C(Nc1cccc(C(F)(F)F)c1)c1ccc(S(=O)(=O)Nc2ccccc2F)cc1", "Unit text": "%", "% Inhibition of Apyrase": 30}
{"Compound": "O=C1Cc2cccc(NS(=O)(=O)c3ccc(Br)cc3)c2N1", "Unit text": "%", "% Inhibition of Apyrase": 54}
{"Compound": "CC1Cc2ccccc2N1C(=O)c1cccc(S(=O)(=O)N(C)c2cccc(Cl)c2)c1 (stereo not shown)", "Unit text": "%", "% Inhibition of Apyrase": 59}
